# TARGET SYSTEM: T1, SA1 (STAG1) (UniProt Q8WVM7 1-1258)
# T1 sequence: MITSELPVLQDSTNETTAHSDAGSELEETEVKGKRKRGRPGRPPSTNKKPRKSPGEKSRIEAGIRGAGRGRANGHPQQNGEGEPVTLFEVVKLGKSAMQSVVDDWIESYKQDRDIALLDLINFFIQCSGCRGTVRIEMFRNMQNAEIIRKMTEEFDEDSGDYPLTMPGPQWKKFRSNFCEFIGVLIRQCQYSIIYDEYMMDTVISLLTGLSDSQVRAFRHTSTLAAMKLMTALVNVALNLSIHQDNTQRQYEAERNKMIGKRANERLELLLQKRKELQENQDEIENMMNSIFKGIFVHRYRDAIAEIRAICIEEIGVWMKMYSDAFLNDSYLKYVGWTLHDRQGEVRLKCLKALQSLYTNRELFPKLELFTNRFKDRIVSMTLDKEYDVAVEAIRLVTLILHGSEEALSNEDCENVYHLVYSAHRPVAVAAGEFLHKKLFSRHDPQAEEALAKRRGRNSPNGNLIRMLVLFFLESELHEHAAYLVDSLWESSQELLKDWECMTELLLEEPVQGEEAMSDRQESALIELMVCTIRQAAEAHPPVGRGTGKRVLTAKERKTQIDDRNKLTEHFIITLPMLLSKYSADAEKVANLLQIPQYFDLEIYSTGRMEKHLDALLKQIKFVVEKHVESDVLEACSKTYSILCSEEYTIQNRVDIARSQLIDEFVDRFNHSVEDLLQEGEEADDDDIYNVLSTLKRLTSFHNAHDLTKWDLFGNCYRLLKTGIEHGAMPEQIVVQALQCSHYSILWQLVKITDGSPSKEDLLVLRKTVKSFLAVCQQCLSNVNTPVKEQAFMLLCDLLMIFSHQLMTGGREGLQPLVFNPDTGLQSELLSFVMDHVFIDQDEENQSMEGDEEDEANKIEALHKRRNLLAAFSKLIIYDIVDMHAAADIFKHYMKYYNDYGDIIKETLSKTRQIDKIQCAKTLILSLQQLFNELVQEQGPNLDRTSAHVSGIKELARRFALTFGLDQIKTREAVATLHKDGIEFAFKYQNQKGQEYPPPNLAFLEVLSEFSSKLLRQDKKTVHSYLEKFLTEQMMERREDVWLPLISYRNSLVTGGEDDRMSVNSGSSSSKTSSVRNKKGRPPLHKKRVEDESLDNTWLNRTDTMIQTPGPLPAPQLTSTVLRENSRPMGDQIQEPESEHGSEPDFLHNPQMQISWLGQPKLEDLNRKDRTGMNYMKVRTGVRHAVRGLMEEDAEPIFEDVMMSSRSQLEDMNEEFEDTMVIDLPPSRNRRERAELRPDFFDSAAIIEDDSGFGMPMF
# METHOD SUMMARY: fluorescence anisotropy
Below: a set of entries, each annotated with reported Kd.
Number only, in nM; omit the unit.

Item 66 nt RNA-1 (ssRNA) RNA: CUGGAUCCGUACAGUGUAAGGGUGAGUGGUUGGGUGUGUGGGUGUUGAUGUAGAACAAGAAUUCGA has what recorded Kd?
3.2

Item RNA:DNA hybrid (25 bp) (DNA:RNA) RNA: GCAGCUGGCACGACAGGUAUGAAUC DNA: GATTCATACCTGTCGTGCCAGCTGC has what recorded Kd?
58.6

Item Model R-loop (mixed) RNA: GCAGCUGGCACGACAGGUAUGAAUC DNA 1: GCCAGGGACGAGGTGAACCTGCAGGTGGGCGGCTACTACTTAGATGTCATCCGAGGCTTATTGGTAGAATTCGGCAGCGTCATGCGACGGC DNA 2: GCCGTCGCATGACGCTGCCGAATTCTACCACGCGATTCATACCTGTCGTGCCAGCTGCTTTGCCCACCTGCAGGTTCACCTCGTCCCTGGC has what recorded Kd?
38.4

Item CUGGAUCCGUACAGUGUAAGGGUGAGUGGUUGGGUGUGUGGGUGU (ssRNA) [45 nt RNA] has what recorded Kd?
6

Item 66 nt RNA-2 (ssRNA) RNA: UCGAAUUCUUGUUCUACAUCAACACCCACACACCCAACCACUCACCCUUACACUGUACGGAUCCAG has what recorded Kd?
3

Item GCAGCUGGCACGACAGGUAUGAAUC (ssRNA) [25 nt RNA (R-loop oligo)] has what recorded Kd?
164

Item RNA:DNA hybrid (45 bp) (DNA:RNA) RNA: CUGGAUCCGUACAGUGUAAGGGUGAGUGGUUGGGUGUGUGGGUGU DNA: ACACCCACACACCCAACCACTCACCCTTACACTGTACGGATCCAG has what recorded Kd?
44
